B1: glmS ribozyme (parent)
chain: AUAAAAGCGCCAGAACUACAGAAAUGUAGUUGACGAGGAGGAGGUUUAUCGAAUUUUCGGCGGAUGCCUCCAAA

- Variants of: B1
- Test: self-cleavage kobs at 160 uM GlcN6P; higher = faster cleavage; RNA array
- Condition Description: with glucosamine-6-phosphate
Fewer inactive variants are shown than the library holds.
Property: self-cleavage kobs at 160 uM GlcN6P

Below are worked cases with known answers.
INSERT INTO measurements (ordered_residues, observed_result) VALUES
  ('AUAAAAGCUCCAGAACUACAGAAAUGUAGUUGACGAGGAGGAGGUUUAUCAAAUUUUCGGCGGAUGCCUCCAAA [G9U G51A]', '< 1e-05 s⁻¹'),
  ('AUAAAAGCGCCAGAACUACAGAAAUGUAGUUGACGAGGAGGAAGUUUACCGAAUUUUCGGCGGAUACCUGCAAA [G43A U49C G66A C70G]', '< 1e-05 s⁻¹');

Look up self-cleavage kobs at 160 uM GlcN6P for this variant: AUAAAAGCGCCAGAACUACAGAAAUGUAGUUGACGAGGAGGAGGUUUAUCGAAUUUUCGGCGGAUGACUCUAAA [C67A C71U] 0.000151 s⁻¹

Name the reported self-cleavage kobs at 160 uM GlcN6P value associated with the variant AUAAAAGCACCAGAAGUACAGAAAUGUAGUUGACGAGGAGGAGGUUUAUCGAAUUUUCGGCGAGUGCCUCCAAA [G9A C16G G63A A64G] < 1e-05 s⁻¹
